Reported recombinant barcode read abundance (log10) values are given for each entry in this list.
Test: recombinant barcode read abundance after kanamycin selection (control-corrected) (log10(CPM+1)); higher = more efficient recombination; sequences stand for … in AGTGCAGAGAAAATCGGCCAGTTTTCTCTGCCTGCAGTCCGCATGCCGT…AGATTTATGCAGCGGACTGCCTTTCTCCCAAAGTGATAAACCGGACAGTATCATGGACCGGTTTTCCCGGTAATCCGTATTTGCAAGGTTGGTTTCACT; site = the 11-nt target
I'd appreciate a reply containing only the number, no unit.

{"sequence": "ATTTCTTCTTGGGTTCTAACCTGTTGCCT (site ATATCTTCTAG)", "observed": 0.113}
{"sequence": "TGTCCCTCTTGGGTTCTAACCTGTTGCCT (site TGTACCTCTAG)", "observed": 0.014}
{"sequence": "GAGTTACCTTGGGTTCTAACCTGTTGCGT (site GAGTTTCCTAC)", "observed": 0.0625}
{"sequence": "CTATGACCTTGGGTTCTAACCTGTTGCCT (site CTATGACCTAG)", "observed": 1.9}
{"sequence": "TGGCTAGCTTGGGTTCTAACCTGTTGCCT (site TGCCTAGCTAG)", "observed": 0.0442}
{"sequence": "TGTACCTCTTGGGTTCTAACCTGTTGCCT (site TGTGCCTCTAG)", "observed": 0.0235}
{"sequence": "GTCGGTCCTTGGGTTCTAACCTGTTGCCG (site AGTTTAACTGT)", "observed": 0.0178}
{"sequence": "TAGACATCTTGGGTTCTAACCTGTTGCTC (site TAGACATCTGA)", "observed": 0.323}
{"sequence": "GGGCCTGCTTGGGTTCTAACCTGTTGCCT (site GGGCCCGCTAG)", "observed": 0.645}
{"sequence": "CTAACCTCTTGGGTTCTAACCTGTTGCTA (site CTAACCTCTCA)", "observed": 0.0433}

In: // lookup recombinant barcode read abundance (log10) for GTTGGGACTTGGGTTCTAACCTGTTGCCT (site GTTGGGACTAG)
Out: 2

In: Request the reported recombinant barcode read abundance (log10) associated with CTACTAACTTGGGTTCTAACCTGTTGCCT (site CTACTAACTAC)
Out: 0.0952

In: Return reported recombinant barcode read abundance (log10); argument: AAGATCACTTGGGTTCTAACCTGTTGCGG (site TTACATGCTAG)
Out: 0.026

In: I'd like to know its recombinant barcode read abundance (log10). The sequence in question is CACGGGACTTGGGTTCTAACCTGTTGCAG (site TCGAACGCTAA)
Out: 0.111

In: Give the measured recombinant barcode read abundance (log10) of GTGAGTCCTTGGGTTCTAACCTGTTGCGG (site GTGAGTCCTCC) .
Out: 2.42

* * *

Experiment: recombinant UMI read abundance after kanamycin selection (control-corrected) (log10(CPM+1)); higher = more efficient recombination; extreme values may be limits of the assay; sequences stand for … in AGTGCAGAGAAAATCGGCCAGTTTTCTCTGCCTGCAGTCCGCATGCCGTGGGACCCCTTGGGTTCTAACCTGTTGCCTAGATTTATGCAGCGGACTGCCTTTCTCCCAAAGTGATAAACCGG…AGGTTGGTTTCACT; site = the 11-nt donor
measured_quantity: recombinant UMI read abundance (log10)
Respond using a number only.

{"sequence": "AAAGTATCATGGACCGGTTTTCCCGGTAATCCGTATTTGCA (site AAAGTATCTTG)", "recombinant UMI read abundance (log10)": 2.86}
{"sequence": "ACAAGAACATGGACCGGTTTTCCCGGTAATCCGTATTTGAG (site ACAAGAACTCT)", "recombinant UMI read abundance (log10)": 2.72}
{"sequence": "TAATGAGCATGGACCGGTTTTCCCGGTAATCCGTATTTGGG (site TAATAAGCTCC)", "recombinant UMI read abundance (log10)": 0.0171}
{"sequence": "CCTAATGCATGGACCGGTTTTCCCGGTAATCCGTATTTGGC (site CCTAATACTGC)", "recombinant UMI read abundance (log10)": 0}

In: # lookup: recombinant UMI read abundance (log10) of TGCGTGACATGGACCGGTTTTCCCGGTAATCCGTATTTGAT (site TGCGTGACTAT)
Out: 1.94

In: GET /values?readout=recombinant UMI read abundance (log10)&item= GAATGGCCATGGACCGGTTTTCCCGGTAATCCGTATTTGCA (site GAATGGCCTGG)
Out: 0

In: Looking for the measured recombinant UMI read abundance (log10) of TCGGTAGCATGGACCGGTTTTCCCGGTAATCCGTATTTGTG (site TCGGTAGCTCA) , can you help?
Out: 0.629

In: Reported recombinant UMI read abundance (log10), sequence CAATGCTCATGGACCGGTTTTCCCGGTAATCCGTATTTGTA (site CAATGCTCTTT) : ____
Out: 1.55

In: Item under review: TAGAATACATGGACCGGTTTTCCCGGTAATCCGTATTTGCA (site TAGAATACTTA) . Reported recombinant UMI read abundance (log10)?
Out: 0

* * *

Experiment: recombinant barcode read abundance after kanamycin selection (control-corrected) (log10(CPM+1)); higher = more efficient recombination; sequences stand for … in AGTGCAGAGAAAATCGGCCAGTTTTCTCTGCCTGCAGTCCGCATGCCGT…ATTTATGCAGCGGACTGCCTTTCTCCCAAAGTGATAAACCGGACAGTATCATGGACCGGTTTTCCCGGTAATCCGTATTTGCAAGGTTGGTTTCACT; site = the 11-nt target
Reported recombinant barcode read abundance (log10) values follow for various sequences
Would you mind answering with just the numeric figure?

Some solved cases for reference:
{"sequence": "GAGTCCTCATGGGTTCTAACCTGTTGCCTTG [GAGTCCTCTAG_LTGcore_CA_RTGcore_CA] (site GAGTCCTCTAG) (LTG core: CA, RTG core: CA)", "observed": 0.185}
{"sequence": "GCGGGACTGTGGGTTCTAACCTGTTGCCTCA [GCGGGACCTAG_LTGcore_TG_RTGcore_TG] (site GCGGGACCTAG) (LTG core: TG, RTG core: TG)", "observed": 0.226}

Okay, next one:
In: Query: recombinant barcode read abundance (log10); subject: AGTCTTACTTGGGTTCTAACCTGTTGCCAGA [AGTCTTACTTG_LTGcore_CT_RTGcore_TC] (site AGTCTTACTTG) (LTG core: CT, RTG core: TC)
Out: 0.0445

* * *

Experiment: recombinant barcode read abundance after kanamycin selection (control-corrected) (log10(CPM+1)); higher = more efficient recombination; sequences stand for … in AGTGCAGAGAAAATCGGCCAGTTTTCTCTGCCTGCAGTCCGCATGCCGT…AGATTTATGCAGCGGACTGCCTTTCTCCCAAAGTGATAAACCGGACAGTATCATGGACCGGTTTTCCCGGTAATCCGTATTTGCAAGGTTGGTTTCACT; site = the 11-nt target
measured_quantity: recombinant barcode read abundance (log10)
In your answer, state the number alone without any accompanying words.

Example results:
{"sequence": "AACAGTACTTGGGTTCTAACCTGTTGCCT (site GACAGTACTAG)", "observed": 0.129}
{"sequence": "ATCGTAGCTTGGGTTCTAACCTGTTGCCA (site ATCGTAGCTTG)", "observed": 0.228}
{"sequence": "CCGAAGCCTTGGGTTCTAACCTGTTGCCT (site CCGTAGCCTAG)", "observed": 0.143}
{"sequence": "ACTTGTTCTTGGGTTCTAACCTGTTGCCT (site GCTTGTTCTAG)", "observed": 0.157}
{"sequence": "TAACGTACTTGGGTTCTAACCTGTTGCAT (site TAACATACTAT)", "observed": 0.0677}

In: Entry TACTATTCTTGGGTTCTAACCTGTTGCCT (site TACTATCCTAG) : reported recombinant barcode read abundance (log10) = ?
Out: 0.0345

In: Look at this sequence and give its reported recombinant barcode read abundance (log10). GAGCGAGCTTGGGTTCTAACCTGTTGCTG (site GAGCGAGCTCT)
Out: 1.25

In: Would you kindly share the measured recombinant barcode read abundance (log10) for GAGCAAACTTGGGTTCTAACCTGTTGCCT (site GATCAATCTAG) ?
Out: 0.16

In: Field request: recombinant barcode read abundance (log10) | item: CAAGGGCCTTGGGTTCTAACCTGTTGCCT (site CAACGGCCTAG)
Out: 0.0504

In: Entry CTCCAACCTTGGGTTCTAACCTGTTGCCT (site CTCCAACCTAG) has what recombinant barcode read abundance (log10)?
Out: 1.54

* * *

Test: recombinant barcode read abundance after kanamycin selection (control-corrected) (log10(CPM+1)); higher = more efficient recombination; sequences stand for … in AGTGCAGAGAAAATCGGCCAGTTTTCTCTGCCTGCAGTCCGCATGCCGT…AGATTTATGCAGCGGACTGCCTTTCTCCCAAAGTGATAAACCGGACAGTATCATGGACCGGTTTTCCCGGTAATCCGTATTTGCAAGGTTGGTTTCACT; site = the 11-nt target
measured_quantity: recombinant barcode read abundance (log10)
Lab note: record just the number, no unit beside it.

Recorded results for 4 sequences are shown here.
{"sequence": "ACGTCTCCTTGGGTTCTAACCTGTTGCTG (site ACGGCTCCTCA)", "observed": 0.0879}
{"sequence": "GTCGGAGCTTGGGTTCTAACCTGTTGCAG (site GTCGGAGCTCC)", "observed": 0.165}
{"sequence": "TATTGTCCTTGGGTTCTAACCTGTTGCCT (site TATTGTCCTAG)", "observed": 0.124}
{"sequence": "ACCAAGTCTTGGGTTCTAACCTGTTGCGT (site ACCAAGTCTGC)", "observed": 0.326}

Now consider the entry below.
In: # lookup: recombinant barcode read abundance (log10) of GTGTATCCTTGGGTTCTAACCTGTTGCTT (site GTGCCTCCTAA)
Out: 0.0308
